Parameter 'readout' = IC50; parameter 'system' = RNA-directed RNA polymerase (Hepacivirus hominis, UniProt O39930).
Sequence (O39930 whole entry): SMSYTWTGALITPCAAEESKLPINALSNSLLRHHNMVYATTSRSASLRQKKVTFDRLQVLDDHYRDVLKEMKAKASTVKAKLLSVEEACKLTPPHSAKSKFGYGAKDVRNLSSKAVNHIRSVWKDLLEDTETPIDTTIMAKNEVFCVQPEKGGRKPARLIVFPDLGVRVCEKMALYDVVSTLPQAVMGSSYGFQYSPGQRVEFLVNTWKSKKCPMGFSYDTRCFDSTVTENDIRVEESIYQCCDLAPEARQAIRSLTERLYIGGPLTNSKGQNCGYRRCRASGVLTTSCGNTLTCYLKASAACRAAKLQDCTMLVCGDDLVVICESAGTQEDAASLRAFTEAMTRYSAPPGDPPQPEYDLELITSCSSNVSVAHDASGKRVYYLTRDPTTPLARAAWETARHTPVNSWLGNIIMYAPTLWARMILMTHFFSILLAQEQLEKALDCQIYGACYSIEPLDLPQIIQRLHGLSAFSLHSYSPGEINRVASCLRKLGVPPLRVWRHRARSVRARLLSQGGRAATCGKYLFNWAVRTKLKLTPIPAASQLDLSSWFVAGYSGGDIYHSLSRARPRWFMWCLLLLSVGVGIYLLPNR

CC(C)C[C@@]1(C(=O)O)C[C@H](C(=O)O)[C@H](c2cccs2)N1C(=O)c1ccncc1 ... > 20 µM
CC(C)C[C@@]1(C(=O)O)C[C@H](C(=O)O)[C@H](c2cccs2)N1C(=O)c1cccc(C(F)(F)F)c1 ... 0.6 µM
CC(C)C[C@@]1(C(=O)O)C[C@H](C(=O)O)[C@H](c2ccco2)N1C(=O)c1ccc(C(F)(F)F)cc1 ... 0.8 µM
CC(C)C[C@@]1(C(=O)O)C[C@H](C(=O)O)[C@H](c2cccs2)N1C(=O)c1ccccc1C(F)(F)F ... > 20 µM

Value of measured IC50 for the entry `CCCCCCC(=O)N1[C@@H](c2cccs2)[C@@H](C(=O)O)C[C@@]1(CC(C)C)C(=O)O` : > 20 µM

Value of measured IC50 for the entry `O=C(O)CC[C@@]1(C(=O)O)C[C@H](C(=O)O)[C@H](c2ccccc2)N1C(=O)c1ccc(C(F)(F)F)cc1` : > 20 µM
